endpoint: melting point

INSERT INTO measurements (compound, endpoint, result) VALUES
  ('CC(C)Nc1cccc2c1C(=O)c1cccc(NC(C)C)c1C2=O [IVc, 1,5-Bis(isopropylamino)anthraquinone]', 'melting point', '170 to 172 °C'),
  ('O=C(Cc1ccccc1)Oc1cccc2c1C(=O)c1cccc(OC(=O)Cc3ccccc3)c1C2=O [IIIm, 1,5-Bis(phenylacetyloxy)-anthraquinone]', 'melting point', '202 to 203 °C'),
  ('O=C1c2cccc(SCc3ccccc3)c2C(=O)c2cccc(SCc3ccccc3)c21 [IIi, 1,5-Bis(benzylthio)-anthraquinone]', 'melting point', '281 to 282 °C'),
  ('Nc1cccc(Sc2cccc3c2C(=O)c2cccc(Sc4cccc(N)c4)c2C3=O)c1 [IIg, 1,5-Bis(m-aminophenylthio)-Anthraquinone]', 'melting point', '292 to 293 °C'),
  ('CCN(CC)CC(=O)Nc1ccc(NC(=O)CN(CC)CC)c2c1C(=O)c1ccccc1C2=O [VI33]', 'melting point', '85 to 86 °C'),
  ('NCCCCCNc1cccc2c1C(=O)c1c(NCCCCCN)cccc1C2=O [Vm, 1,8-Bis(aminopentylamino)-anthraquinone]', 'melting point', '115 to 116 °C'),
  ('O=C(CCl)Nc1ccc(NC(=O)CCl)c2c1C(=O)c1ccccc1C2=O [VI1]', 'melting point', '285 to 287 °C'),
  ('O=C1c2cccc(NC3CCCC3)c2C(=O)c2cccc(NC3CCCC3)c21 [IVi, 1,5-Bis(cyclopentylamino)anthraquinone]', 'melting point', '198 to 201 °C'),
  ('CCCNc1cccc2c1C(=O)c1cccc(NCCC)c1C2=O [IVf, 1,5-Bis(propylamino)anthraquinone]', 'melting point', '153 to 154 °C'),
  ('CCNc1cccc2c1C(=O)c1cccc(NCC)c1C2=O [IVa, 1,5-Bis(ethylamino)anthraquinone]', 'melting point', '193 to 195 °C'),
  ('CCCCCCNc1cccc2c1C(=O)c1cccc(NCCCCCC)c1C2=O [IVn, 1,5-Bis(hexylamino)-anthraquinone]', 'melting point', '142 to 144 °C'),
  ('CC1CCCC(Nc2cccc3c2C(=O)c2cccc(NC4CCCC(C)C4C)c2C3=O)C1C (stereo not drawn) [IVp]', 'melting point', '188 to 190 °C'),
  ('O=C1c2cccc(SCCCCCCO)c2C(=O)c2cccc(SCCCCCCO)c21 [IIe, 1,5-Bis(hydroxyhexylthio)-anthraquinone]', 'melting point', '195 to 196 °C'),
  ('CCN(CC)C(C)C(=O)Nc1ccc(NC(=O)C(C)N(CC)CC)c2c1C(=O)c1ccccc1C2=O (stereo not drawn) [VI35]', 'melting point', '175 to 177 °C'),
  ('CC(Cl)C(=O)Nc1ccc(NC(=O)C(C)Cl)c2c1C(=O)c1ccccc1C2=O (stereo not drawn) [VI9]', 'melting point', '233 to 235 °C'),
  ('CCCCNc1cccc2c1C(=O)c1cccc(NCCCC)c1C2=O [IVg, 1,5-Bis(butylamino)anthraquinone]', 'melting point', '152 to 153 °C'),
  ('O=C1c2ccccc2C(=O)c2c(NC(=O)[C@@H]3C[C@H]3c3ccccc3)ccc(NC(=O)[C@@H]3C[C@H]3c3ccccc3)c21 (relative stereo) [VI27]', 'melting point', '272 to 274 °C'),
  ('CCCSc1cccc2c1C(=O)c1cccc(SCCC)c1C2=O [IIc, 1,5-Bis(propylthio)-anthraquinone]', 'melting point', '232 to 233 °C'),
  ('O=C(Nc1ccc(NC(=O)c2cccs2)c2c1C(=O)c1ccccc1C2=O)c1cccs1 [VI22]', 'melting point', '321 to 322 °C'),
  ('CC(Cl)C(=O)Nc1cccc2c1C(=O)c1cccc(NC(=O)C(C)Cl)c1C2=O (stereo not drawn) [VIId]', 'melting point', '288 to 289 °C'),
  ('O=C1c2ccccc2C(=O)c2c(NC(=O)C3CCCCC3)ccc(NC(=O)C3CCCCC3)c21 [VI17]', 'melting point', '309 to 310 °C'),
  ('COc1ccc(CSc2cccc3c2C(=O)c2cccc(SCc4ccc(OC)cc4)c2C3=O)cc1 [IIj]', 'melting point', '297 to 299 °C'),
  ('Cc1cccc(C(=O)Oc2cccc3c2C(=O)c2cccc(OC(=O)c4cccc(C)c4)c2C3=O)c1 [IIIk, 1,5-Bis(3-toluoyloxy)-anthraquinone]', 'melting point', '269 to 270 °C'),
  ('NCCCCCNc1cccc2c1C(=O)c1cccc(NCCCCCN)c1C2=O [IVm, 1,5-Bis(aminopentylamino)-anthraquinone]', 'melting point', '113 to 115 °C'),
  ('Cc1ccc(C(=O)Oc2cccc3c2C(=O)c2cccc(OC(=O)c4ccc(C)cc4)c2C3=O)cc1 [IIIl, 1,5-Bis(4-toluoyloxy)-anthraquinone]', 'melting point', '331 to 332 °C'),
  ('O=C(Cc1ccc(F)cc1)Nc1ccc(NC(=O)Cc2ccc(F)cc2)c2c1C(=O)c1ccccc1C2=O [VI32]', 'melting point', '228 to 230 °C'),
  ('CCC(=O)Nc1cccc2c1C(=O)c1cccc(NC(=O)CC)c1C2=O [VIIb]', 'melting point', '321 °C'),
  ('O=C(Oc1cccc2c1C(=O)c1cccc(OC(=O)c3ccccc3)c1C2=O)c1ccccc1 [IIIe, 1,5-Bis(benzoyloxy)-anthraquinone]', 'melting point', '336 to 338 °C'),
  ('O=C(Cc1cccs1)Nc1ccc(NC(=O)Cc2cccs2)c2c1C(=O)c1ccccc1C2=O [VI25]', 'melting point', '158 to 160 °C'),
  ('CCSc1cccc2c1C(=O)c1cccc(SCC)c1C2=O [IIa, 1,5-Bis(ethylthio)-anthraquinone]', 'melting point', '235 to 236 °C');
